assay: Volume of distribution at steady state in rat at 2 mg/kg, iv; type: ADME, organism-based; design: dose 2 mg/kg, route intravenous; settings: in vivo, read-out: Vdss
ENDPOINT: Vd (L/kg)

>  <SMI>
C=C[C@@H]1C[C@]1(NC(=O)[C@@H]1C[C@@H](Oc2cc(-c3csc(NC(=O)CC)n3)nc3c(C)c(OC)ccc23)CN1C(=O)[C@@H](NC(=O)OC1CCCC1)C(C)(C)C)C(=O)O

>  <MEASUREMENT>
1.8

$$$$
>  <SMI>
C=C[C@@H]1C[C@]1(NC(=O)[C@@H]1C[C@@H](Oc2cc(-c3csc(NC(=O)CC(C)(C)C)n3)nc3cc(OC)ccc23)CN1C(=O)[C@@H](NC(=O)OC1CCCC1)C(C)(C)C)C(=O)O

>  <MEASUREMENT>
0.83

$$$$
>  <SMI>
C=C[C@@H]1C[C@]1(NC(=O)[C@@H]1C[C@@H](Oc2cc(-c3csc(NC(C)C)n3)nc3cc(OC)ccc23)CN1C(=O)[C@@H](NC(=O)OC1CCCC1)C(C)(C)C)C(=O)O

>  <MEASUREMENT>
3.7

$$$$

---

test: Cmax in rat at 5 mg/kg, po; type: ADME, organism-based; set-up: dose 5 mg/kg, route oral; details: in vivo
# Cmax values compiled below

>  <SMI>
C=C[C@@H]1C[C@]1(NC(=O)[C@@H]1C[C@@H](Oc2cc(-c3csc(NC(C)C)n3)nc3cc(OC)ccc23)CN1C(=O)[C@@H](NC(=O)OC1CCCC1)C(C)(C)C)C(=O)O

>  <Cmax>
790 nM

$$$$
>  <SMI>
C=C[C@@H]1C[C@]1(NC(=O)[C@@H]1C[C@@H](Oc2cc(-c3csc(NC(=O)CC)n3)nc3c(C)c(OC)ccc23)CN1C(=O)[C@@H](NC(=O)OC1CCCC1)C(C)(C)C)C(=O)O

>  <Cmax>
820 nM

$$$$
>  <SMI>
C=C[C@@H]1C[C@]1(NC(=O)[C@@H]1C[C@@H](Oc2cc(-c3csc(NC(=O)CC(C)(C)C)n3)nc3cc(OC)ccc23)CN1C(=O)[C@@H](NC(=O)OC1CCCC1)C(C)(C)C)C(=O)O

>  <Cmax>
1100 nM

$$$$

---

# AUC(0-inf) values compiled below
experiment: AUC (0 to infinity) in rat at 5 mg/kg, po; format: ADME, organism-based; set-up: time infinity, dose 5 mg/kg, route oral; details: plasma
ENDPOINT: AUC(0-inf) (µM·h)

>  <SMI>
C=C[C@@H]1C[C@]1(NC(=O)[C@@H]1C[C@@H](Oc2cc(-c3csc(NC(C)C)n3)nc3cc(OC)ccc23)CN1C(=O)[C@@H](NC(=O)OC1CCCC1)C(C)(C)C)C(=O)O

>  <MEASUREMENT>
2.4

$$$$
>  <SMI>
C=C[C@@H]1C[C@]1(NC(=O)[C@@H]1C[C@@H](Oc2cc(-c3csc(NC(=O)CC)n3)nc3c(C)c(OC)ccc23)CN1C(=O)[C@@H](NC(=O)OC1CCCC1)C(C)(C)C)C(=O)O

>  <MEASUREMENT>
3.5

$$$$
>  <SMI>
C=C[C@@H]1C[C@]1(NC(=O)[C@@H]1C[C@@H](Oc2cc(-c3csc(NC(=O)CC(C)(C)C)n3)nc3cc(OC)ccc23)CN1C(=O)[C@@H](NC(=O)OC1CCCC1)C(C)(C)C)C(=O)O

>  <MEASUREMENT>
2.8

$$$$

---

assay: Clearance in rat at 2 mg/kg, iv; assay type: ADME, organism-based; set-up: dose 2 mg/kg, route intravenous; conditions: in vivo
# clearance values compiled below

>  <SMI>
C=C[C@@H]1C[C@]1(NC(=O)[C@@H]1C[C@@H](Oc2cc(-c3csc(NC(=O)CC)n3)nc3c(C)c(OC)ccc23)CN1C(=O)[C@@H](NC(=O)OC1CCCC1)C(C)(C)C)C(=O)O

>  <clearance / mL/min/kg>
15

$$$$
>  <SMI>
C=C[C@@H]1C[C@]1(NC(=O)[C@@H]1C[C@@H](Oc2cc(-c3csc(NC(C)C)n3)nc3cc(OC)ccc23)CN1C(=O)[C@@H](NC(=O)OC1CCCC1)C(C)(C)C)C(=O)O

>  <clearance / mL/min/kg>
24

$$$$
>  <SMI>
C=C[C@@H]1C[C@]1(NC(=O)[C@@H]1C[C@@H](Oc2cc(-c3csc(NC(=O)CC(C)(C)C)n3)nc3cc(OC)ccc23)CN1C(=O)[C@@H](NC(=O)OC1CCCC1)C(C)(C)C)C(=O)O

>  <clearance / mL/min/kg>
14

$$$$

---

# bioavailability values compiled below
assay: Oral bioavailability in rat at 5 mg/kg; format: ADME, organism-based; conditions: in vivo

>  <SMI>
C=C[C@@H]1C[C@]1(NC(=O)[C@@H]1C[C@@H](Oc2cc(-c3csc(NC(C)C)n3)nc3cc(OC)ccc23)CN1C(=O)[C@@H](NC(=O)OC1CCCC1)C(C)(C)C)C(=O)O

>  <UNIT_TEXT>
%

>  <bioavailability>
54

$$$$
>  <SMI>
C=C[C@@H]1C[C@]1(NC(=O)[C@@H]1C[C@@H](Oc2cc(-c3csc(NC(=O)CC(C)(C)C)n3)nc3cc(OC)ccc23)CN1C(=O)[C@@H](NC(=O)OC1CCCC1)C(C)(C)C)C(=O)O

>  <UNIT_TEXT>
%

>  <bioavailability>
39

$$$$
>  <SMI>
C=C[C@@H]1C[C@]1(NC(=O)[C@@H]1C[C@@H](Oc2cc(-c3csc(NC(=O)CC)n3)nc3c(C)c(OC)ccc23)CN1C(=O)[C@@H](NC(=O)OC1CCCC1)C(C)(C)C)C(=O)O

>  <UNIT_TEXT>
%

>  <bioavailability>
56

$$$$
